- target system: catalytic domain of human gelatinase-A (MMP-2) (Homo sapiens)
- Sequence (P08253 110-465 limits assumed): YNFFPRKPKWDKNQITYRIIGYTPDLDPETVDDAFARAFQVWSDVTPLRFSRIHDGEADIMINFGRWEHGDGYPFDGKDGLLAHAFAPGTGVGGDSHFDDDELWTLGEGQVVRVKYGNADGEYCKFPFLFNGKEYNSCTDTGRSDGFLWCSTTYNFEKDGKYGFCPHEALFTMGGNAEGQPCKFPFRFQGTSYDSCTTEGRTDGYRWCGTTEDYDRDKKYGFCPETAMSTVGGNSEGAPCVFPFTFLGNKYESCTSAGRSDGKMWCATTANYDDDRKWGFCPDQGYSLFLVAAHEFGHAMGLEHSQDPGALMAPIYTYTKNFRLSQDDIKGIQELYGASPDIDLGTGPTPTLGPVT
- assay info: Enzymatic activity of the catalytic domain of human gelatinase-A (MMP-2), fluorogenic substrate
- Assay type: biochemical
assay metric: IC50 (nM)

Recorded results for 5 molecules are shown here.
{"columns": ["molecule", "IC50 [nM]"],
 "data": [
  ["O=C(O)C1C2CCOC2CCN1S(=O)(=O)c1ccc(-c2ccc(Cl)cc2)cc1 (centres unmarked) [Example 6]", 38],
  ["CS(=O)(=O)c1ccc(Oc2ccc(S(=O)(=O)N3CC[C@@H]4OCC[C@@H]4[C@@H]3C(=O)NO)cc2)cc1 [Example 23]", 1],
  ["O=C(NO)[C@@H]1[C@@H]2CCO[C@@H]2CCN1S(=O)(=O)c1ccc(Oc2ccc(F)cc2)cc1 [Example 13]", 47],
  ["O=C(NO)[C@H]1[C@H]2CCO[C@H]2CCN1S(=O)(=O)c1ccc(-c2ccc(Cl)cc2)cc1 [Example 8]", 0.8],
  ["O=C(NO)[C@@H]1[C@@H]2CCO[C@@H]2CCN1S(=O)(=O)c1ccc(-c2ccc(Cl)cc2)cc1 [Example 9]", 71]
]}

P: O=C(NO)C1C2CCOC2CCN1S(=O)(=O)c1ccc(Oc2ccc(F)cc2)cc1 (centres unmarked) [Example 11]
Q: O=C(NO)[C@H]1[C@H]2CCO[C@H]2CCN1S(=O)(=O)c1ccc(Oc2ccc(F)cc2)cc1 [Example 12]
In: Which one would you say has the larger IC50 value: P , or Q ? Pick one and reply with its label.
Out: P
(P: 2 nM, Q: 0.8 nM)

----------
- target system: catalytic domain of human stromelysin (MMP-3) (Homo sapiens)
- Construct: Preparation and determination of the enzymatic activity of the catalytic domain of human stromelysin (MMP-3); made in house
- Sequence (P08254 100-272 limits assumed): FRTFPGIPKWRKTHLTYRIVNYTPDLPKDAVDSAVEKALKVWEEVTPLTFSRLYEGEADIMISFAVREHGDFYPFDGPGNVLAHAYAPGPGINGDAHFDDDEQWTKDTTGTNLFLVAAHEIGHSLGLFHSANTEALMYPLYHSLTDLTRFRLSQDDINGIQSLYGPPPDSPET
- assay info: Enzymatic activity of the catalytic domain of human stromelysin (MMP-3), fluorogenic substrate
- Type: biochemical
assay metric: IC50 (nM)

Recorded results for 4 compounds are shown here.
{"columns": ["compound", "IC50 (nM)"],
 "data": [
  ["O=C(NO)C1C2CCOC2CCN1S(=O)(=O)c1ccc(-c2ccc(Cl)cc2)cc1 (stereo not shown) [Example 7]", 29],
  ["CS(=O)(=O)c1ccc(Oc2ccc(S(=O)(=O)N3CC[C@@H]4OCC[C@@H]4[C@@H]3C(=O)NO)cc2)cc1 [Example 23]", 15],
  ["O=C(NO)[C@H]1[C@H]2CCO[C@H]2CCN1S(=O)(=O)c1ccc(-c2ccc(Cl)cc2)cc1 [Example 8]", 13],
  ["N#Cc1ccc(Oc2ccc(S(=O)(=O)N3CC[C@@H]4OCC[C@@H]4[C@@H]3C(=O)NO)cc2)cc1 [Example 21]", 17]
]}

I: O=C(NO)[C@H]1[C@H]2CCO[C@H]2CCN1S(=O)(=O)c1ccc(Oc2ccc(F)cc2)cc1 [Example 12]
II: O=C(NO)[C@@H]1[C@@H]2CCO[C@@H]2CCN1S(=O)(=O)c1ccc(-c2ccc(Cl)cc2)cc1 [Example 9]
III: O=C(NO)C1C2CCOC2CCN1S(=O)(=O)c1ccc(Oc2ccc(Cl)cc2)cc1 (stereo not shown) [Example 18]
In: Order these by IC50, descending, and give the full ranking. Return value: ordered labels per request.
Out: II, III, I

----------
- target system: catalytic domain of human gelatinase-A (MMP-9) (Homo sapiens)
- Sequence (P14780 107-444 limits assumed): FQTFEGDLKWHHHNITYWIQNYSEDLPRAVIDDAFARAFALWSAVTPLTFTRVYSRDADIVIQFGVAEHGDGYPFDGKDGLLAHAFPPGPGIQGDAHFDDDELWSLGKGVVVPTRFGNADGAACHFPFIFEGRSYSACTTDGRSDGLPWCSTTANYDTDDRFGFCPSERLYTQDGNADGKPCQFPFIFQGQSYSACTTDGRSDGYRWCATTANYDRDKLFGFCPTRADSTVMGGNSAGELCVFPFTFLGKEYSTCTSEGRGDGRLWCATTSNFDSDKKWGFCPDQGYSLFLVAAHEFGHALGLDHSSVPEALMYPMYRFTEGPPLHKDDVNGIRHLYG
- assay info: Enzymatic activity of the catalytic domain of human gelatinase-A (MMP-9), fluorogenic substrate
- Format: biochemical
assay metric: IC50 (nM)

{"columns": ["compound", "unit abbrev", "IC50"],
 "data": [
  ["O=C(NO)[C@H]1[C@H]2CCO[C@H]2CCN1S(=O)(=O)c1ccc(Oc2ccc(F)cc2)cc1 [Example 12]", "nM", 1.3]
]}

1: O=C(NO)[C@H]1[C@H]2CCO[C@H]2CCN1S(=O)(=O)c1ccc(-c2ccc(Cl)cc2)cc1 [Example 8]
2: O=C(O)C1C2CCOC2CCN1S(=O)(=O)c1ccc(Oc2ccc(F)cc2)cc1 (stereo not shown) [Example 10]
3: O=C(NO)[C@@H]1[C@@H]2CCO[C@@H]2CCN1S(=O)(=O)c1ccc(-c2ccc(Cl)cc2)cc1 [Example 9]
In: // ascending sort on recorded IC50 Return value: ordered labels per request.
Out: 1, 3, 2
(1: 1.5 nM, 3: 120 nM, 2: 2500 nM)

----------
- target system: catalytic domain of human collagenase-3 (MMP-13) (Homo sapiens, UniProt P45452)
- Construct: Determination of the Enzymatic Activity of the Catalytic Domain of Human Collagenase-3 (MMP-13); purchased INVITEK, Berlin 30 100 803
- assay info: Enzymatic activity of the catalytic domain of human collagenase-3 (MMP-13), fluorogenic substrate
- Format: biochemical
assay metric: IC50 (nM)

{"columns": ["compound", "measurement"],
 "data": [
  ["O=C(NO)[C@@H]1[C@@H]2CCO[C@@H]2CCN1S(=O)(=O)c1ccc(-c2ccc(Cl)cc2)cc1 [Example 9]", 58]
]}

A: O=C(NO)[C@@H]1[C@@H]2CCO[C@@H]2CCN1S(=O)(=O)c1ccc(Oc2ccc(F)cc2)cc1 [Example 13]
B: O=C(O)C1C2CCOC2CCN1S(=O)(=O)c1ccc(-c2ccc(Cl)cc2)cc1 (stereo not shown) [Example 6]
C: O=C(NO)C1C2CCOC2CCN1S(=O)(=O)c1ccc(Oc2ccc(Cl)cc2)cc1 (stereo not shown) [Example 18]
In: // ascending sort on recorded IC50 Return value: ordered labels per request.
Out: C, A, B

----------
- target system: catalytic domain of neutrophil collagenase (MMP-8) (Homo sapiens, UniProt P22894)
- Construct: catalytic domain of human stromelysin (MMP-3) and of neutrophil collagenase (MMP-8); made in house
- Sequence (P22894 100-262 limits assumed): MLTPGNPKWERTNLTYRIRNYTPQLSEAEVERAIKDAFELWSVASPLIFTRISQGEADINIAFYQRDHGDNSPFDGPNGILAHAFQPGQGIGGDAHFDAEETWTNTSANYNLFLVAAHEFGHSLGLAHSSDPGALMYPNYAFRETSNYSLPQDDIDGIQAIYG
- assay info: Enzymatic activity of the catalytic domain of neutrophil collagenase (MMP-8), fluorogenic substrate
- Format: biochemical
assay metric: IC50 (nM)

Recorded results for 3 molecules are shown here.
{"columns": ["molecule", "IC50 / nM"],
 "data": [
  ["O=C(NO)C1C2CCOC2CCN1S(=O)(=O)c1ccc(Oc2ccc(F)cc2)cc1 (centres unmarked) [Example 11]", 6],
  ["O=C(NO)[C@@H]1[C@@H]2CCO[C@@H]2CCN1S(=O)(=O)c1ccc(Oc2ccc(F)cc2)cc1 [Example 13]", 150],
  ["N#Cc1ccc(Oc2ccc(S(=O)(=O)N3CC[C@@H]4OCC[C@@H]4[C@@H]3C(=O)NO)cc2)cc1 [Example 21]", 2]
]}

a: O=C(NO)[C@@H]1[C@@H]2CCO[C@@H]2CCN1S(=O)(=O)c1ccc(-c2ccc(Cl)cc2)cc1 [Example 9]
b: CS(=O)(=O)c1ccc(Oc2ccc(S(=O)(=O)N3CC[C@@H]4OCC[C@@H]4[C@@H]3C(=O)NO)cc2)cc1 [Example 23]
In: For a and b , which recorded IC50 is lower? Pick one and reply with its label.
Out: b

a: O=C(NO)[C@H]1[C@H]2CCO[C@H]2CCN1S(=O)(=O)c1ccc(Oc2ccc(F)cc2)cc1 [Example 12]
b: O=C(NO)C1C2CCOC2CCN1S(=O)(=O)c1ccc(Oc2ccc(Cl)cc2)cc1 (centres unmarked) [Example 18]
c: O=C(O)C1C2CCOC2CCN1S(=O)(=O)c1ccc(Oc2ccc(F)cc2)cc1 (centres unmarked) [Example 10]
d: O=C(NO)[C@H]1[C@H]2CCO[C@H]2CCN1S(=O)(=O)c1ccc(-c2ccc(Cl)cc2)cc1 [Example 8]
In: // ascending sort on recorded IC50 Return value: ordered labels per request.
Out: d, a, b, c
(d: 1 nM, a: 2 nM, b: 24 nM, c: 410 nM)

A: O=C(O)C1C2CCOC2CCN1S(=O)(=O)c1ccc(-c2ccc(Cl)cc2)cc1 (centres unmarked) [Example 6]
B: O=C(NO)C1C2CCOC2CCN1S(=O)(=O)c1ccc(-c2ccc(Cl)cc2)cc1 (centres unmarked) [Example 7]
In: Which one would you say has the larger IC50 value: A , or B ? Pick one and reply with its label.
Out: A
(A: 54 nM, B: 2.4 nM)

----------
- target system: catalytic domain of human collagenase-1 (MMP-1) (Homo sapiens, UniProt P03956)
- Construct: Determination of the Enzymatic Activity of the Catalytic Domain of Human Collagenase-1 (MMP-1); purchased Biocol, Potsdam MMP1
- Sequence (P03956 100-269 limits assumed): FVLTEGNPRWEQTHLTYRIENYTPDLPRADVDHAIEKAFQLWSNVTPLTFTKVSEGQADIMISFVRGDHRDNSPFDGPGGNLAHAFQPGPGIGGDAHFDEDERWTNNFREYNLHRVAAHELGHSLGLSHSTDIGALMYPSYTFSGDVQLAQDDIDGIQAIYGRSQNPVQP
- assay info: Enzymatic activity of the catalytic domain of human collagenase-1 (MMP-1), fluorogenic substrate
- Format: biochemical
assay metric: IC50 (nM)

{"columns": ["compound", "IC50 / nM"],
 "data": [
  ["O=C(NO)C1C2CCOC2CCN1S(=O)(=O)c1ccc(Oc2ccc(Cl)cc2)cc1 (stereo not shown)", 43]
]}

1: O=C(NO)C1C2CCOC2CCN1S(=O)(=O)c1ccc(-c2ccc(Cl)cc2)cc1 (stereo not shown)
2: O=C(NO)[C@H]1[C@H]2CCO[C@H]2CCN1S(=O)(=O)c1ccc(Oc2ccc(F)cc2)cc1
3: O=C(NO)[C@@H]1[C@@H]2CCO[C@@H]2CCN1S(=O)(=O)c1ccc(Oc2ccc(F)cc2)cc1
4: CS(=O)(=O)c1ccc(Oc2ccc(S(=O)(=O)N3CC[C@@H]4OCC[C@@H]4[C@@H]3C(=O)NO)cc2)cc1
5: O=C(NO)[C@@H]1[C@@H]2CCO[C@@H]2CCN1S(=O)(=O)c1ccc(-c2ccc(Cl)cc2)cc1
In: Order these by IC50, descending, and give the full ranking. Return value: ordered labels per request.
Out: 5, 3, 4, 1, 2

Reference source: patent US8039481B2
